Measured Minimum inhibitory concentration, listed per entry for reference.
System: rD2BPL3
Assay: Inhibition of hemagglutination activity of rD2BPL3 (refolded rBPL3) by sugars
Format: cell-based, Bryopsis plumosa
Settings: inhibition of hemagglutination activity of rD2BPL3

compound	tested_target	Minimum inhibitory concentration
CC(=O)N[C@H]1C(O)O[C@H](CO)[C@@H](O)[C@@H]1O (stereo partly drawn)	rD2BPL3	62.5 mM

Req: Item CC(=O)N[C@H]1C(O)O[C@H](CO)[C@H](O)[C@@H]1O (stereo partly drawn) has what recorded Minimum inhibitory concentration?
Resp: 31.25 mM
